Entry source: the RNAGym collection of RNA variant scans (doi:10.1073/pnas.2313332121)

B1: TPR t1 (parent)
chain: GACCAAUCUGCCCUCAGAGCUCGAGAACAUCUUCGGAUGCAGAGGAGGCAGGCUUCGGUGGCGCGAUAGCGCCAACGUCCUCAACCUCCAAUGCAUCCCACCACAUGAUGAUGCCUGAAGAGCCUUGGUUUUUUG

# Variants of: B1
# Experiment notes: polymerase ribozyme fitness, log enrichment relative to wild type (log ratio); higher = more active; in vitro selection for triplet polymerase activity
Would you mind labelling by polymerase ribozyme fitness (log ratio)? At or over -1 is 1.0, under is 0.0.

Variant notation	Label
C22A C82A C89A A111G	0.0
C13U A27G G47A C64U	0.0
C3U C20A G57A G60U G117A	0.0
C64U A83C	1.0
U32G C72U C102U G113A	0.0
C115G U125A	0.0
G51A C62U C124U	0.0
A41G G57A G77U C123A G128C	0.0
G19C C49G U92A U125G	0.0
A18U G60U U130C	0.0
C13A G69U C73G	0.0
C73U A100U G110A	0.0
G69C C94U	0.0
C8A U14A C101G	0.0
C53G G113A	0.0
G47U G57U G93U	0.0
G71C U78A A118G	1.0
A50C A84C	0.0
C11G G42C G69U A111C	1.0
C3U C12G G71U	1.0
G17C G19U G63U A91C C124A	0.0
G42U C53G G77U U126C	0.0
